Below: a set of entries, each annotated with reported kon.
# Subject of test: T1, human PD-L1-his (human, UniProt Q9NZQ7 19-238)
# T1 construct: also called hPD-L1-his; human His-PD-L1
# Assay comment: SPR, Biacore, full kinetics, antigen 100-1.5625 nM
Measurement label: kon (M⁻¹ s⁻¹)

>>> result_number("93-VH-8 (VHH, Humanized) VHH: EVQLVESGGGLVQPGGSLRLSCAASGRTFTFRHYVMGWFRQAPGKGLEFVAAISWSGSGSYYADSVKGRFTISRDNSKNTVYLQMNSLRAEDTAVYYCAADMTTRMSQASREYDYWGQGTLVTVSS")
133000
>>> result_number("ALP-Tan-3p-112 (chimeric) (antibody, V domains shown, not shown: a dimerising Fc or GST; small tags and cut ends, Called chimeric) VH: QVQLVESGGGLVQPGGSLRLSCAASGSIFSSGTNFSDSKIDWYRQAPGKQRDWIAGIFSTGSTIYEDSVKGRFAISRDNAKNMGYLQMNSLKPEDTAVYYCRVIGRGILAWGQGTQVTVSS")
"2.14e+06"
>>> result_number("112-VHH5-PTM (VHH, Humanized) VHH: EVQLVESGGGLVQPGGSLRLSCAASGSIFSSGTQFSDSKIDWYRQAPGKQRDWVAGIFSTGSTIYEDSVKGRFAISRDNAKNSLYLQMNSLRAEDTAVYYCRVIGRGILAWGQGTLVTVSS")
"1.62e+06"
>>> result_number("93-VH-6 (VHH, Humanized anti-PD-L1 single domain antibody; the assays imply a human Fc part that is not described; also called PD-L1 Ab (93-VH6); 93-VH6 sdAb) VHH: EVQLVESGGGLVQPGGSLRLSCAASGFTFTFRHYVMGWFRQAPGKEREFVAAISWSGSGSYYADSVKGRFTISRDNSKNTVYLQMNSLRAEDTAVYYCAADMTTRMSQASREYDYWGQGTLVTVSS")
95900
>>> result_number("93-VH-2 (VHH, Humanized) VHH: EVQLVESGGGLVQPGGSLRLSCAASGFTFTFRHYVMGWVRQAPGKEREWVSAISWSGSGSYYADSVKGRFTISRDNSKNTVYLQMNSLRAEDTAVYYCAADMTTRMSQASREYDYWGQGTLVTVSS")
61500
>>> result_number("93-VH-5 (VHH, Humanized) VHH: EVQLVESGGGLVQPGGSLRLSCAASGFTFTFRHYVMGWFRQAPGKEREFVAAISWSGSGSYYADSVKGRFTISRDNSKNTLYLQMNSLRAEDTAVYYCAKDMTTRMSQASREYDYWGQGTLVTVSS")
452000
>>> result_number("93-VH-9 (VHH, Humanized) VHH: EVQLVESGGGLVQPGGSLRLSCAASGRTFTFRHYVMGWFRQAPGKGLEFVAAISWSGSGSYYADSVKGRFTISRDNSKNTLYLQMNSLRAEDTAVYYCAADMTTRMSQASREYDYWGQGTLVTVSS")
140000
>>> result_number("112-VHH3-PTM (VHH, Humanized) VHH: EVQLVESGGGLVQPGGSLRLSCAASGSIFSSGTQFSDSKIDWYRQAPGKQREWVSGIFSTGSTIYEDSVKGRFTISRDNAKNSLYLQMNSLRAEDTAVYYCRVIGRGILAWGQGTLVTVSS")
"2.07e+06"
>>> result_number("93-VH-3 (VHH, Humanized) VHH: EVQLVESGGGLVQPGGSLRLSCAASGFTFTFRHYVMGWFRQAPGKGLEFVAAISWSGSGSYYADSVKGRFTISRDNSKNTLYLQMNSLRAEDTAVYYCAKDMTTRMSQASREYDYWGQGTLVTVSS")
486000
